Recorded Metric: melting point

[[record]]
smiles_input = "COc1ccc2ncc(CO)cc2c1"
test_value = "92 to 93 °C"

[[record]]
smiles_input = "O=C(CSc1n[nH]c(-c2ccco2)n1)C12CC3CC(CC(C3)C1)C2"
test_value = "177 to 178 °C"

[[record]]
smiles_input = "COCCc1nc2c(N)nc3ccccc3c2n1CCCNC(=O)N1CCOCC1"
test_value = "194 to 196 °C"


Value lookup for melting point; key = "CSc1nn(-c2c(Cl)cc(C(F)(F)F)cc2Cl)c(N)c1S(=O)(=O)c1cccc(C(F)(F)F)c1"
201 to 203 °C

----------
Each entry below lists one item and its recorded melting point value.

[[record]]
compound = "Cc1c(-c2ccc(=O)[nH]c2)cccc1[N+](=O)[O-]"
recorded_metric = "melting point"
test_value = "214 to 216 °C"

[[record]]
compound = "O=C(O)C1=Cc2cc(C(F)(F)F)ccc2NC1C(F)(F)F (stereo not drawn)"
recorded_metric = "melting point"
test_value = "150 to 156 °C"

[[record]]
compound = "Cc1ccc(C(=O)Nc2ccccc2O)cc1F"
recorded_metric = "melting point"
test_value = "181 to 183 °C"

[[record]]
compound = "CCOC(=O)C(NC(=O)CSC)C(=O)OCC"
recorded_metric = "melting point"
test_value = "56 to 58 °C"

[[record]]
compound = "COC(=O)[C@@H]1C[C@H](OC(=O)C(C)C)C(=O)[C@H]2[C@@]1(C)CC[C@H]1C(=O)O[C@H](c3ccoc3)C[C@]21C"
recorded_metric = "melting point"
test_value = "155 to 157 °C"


Value lookup for melting point; key = "CCCCC[C@@H](CNC(=O)Nc1c(N2CCCC2)ncnc1N1CCCC1)c1cccc2c1OCO2"
199 to 200 °C

Value lookup for melting point; key = "COCCOCOCc1c(OC)ccc2c1Oc1c(ccc(OC)c1CO)N2C"
68 to 70 °C

Value lookup for melting point; key = "Cn1cc(S(C)(=O)=O)c(=O)c2sccc21"
258 to 261 °C

----------
Recorded Metric: melting point

[[record]]
compound = "Oc1cccc(CN2CCCCC2c2nc(-c3ccccc3)c(-c3ccccc3)o2)c1 (stereo not given)"
test_value = "205 to 208 °C"

[[record]]
compound = "CCCN(c1ccccc1)c1nc(C)nc(Cl)c1[N+](=O)[O-]"
test_value = "99.8 to 100 °C"

[[record]]
compound = "S=c1sc(=Nc2ccc(Cl)cc2)n2n1CCCC2"
test_value = "96 to 97 °C"


Value lookup for melting point; key = CCC(C)N1CCC(CNc2ccc(Cl)cc2C(=O)Nc2ccc(C)cn2)CC1 (stereo not given)
126 to 128 °C

Value lookup for melting point; key = CCOC(=O)C(C)(C(C)=O)c1ccc(N)c(NC)c1C#N (stereo not given)
118 to 123 °C

----------
Recorded Metric: melting point

[[record]]
smiles_input = "Cc1ncc(Cl)c(C(=O)Nc2ccn3cc(-c4ccccc4)nc3n2)n1"
recorded_metric = "melting point"
test_value = "> 250 °C"

[[record]]
smiles_input = "COCC(=O)N[C@H]1c2ccccc2C[C@@H]1C"
recorded_metric = "melting point"
test_value = "78 to 79 °C"

[[record]]
smiles_input = "COc1ccc(-c2cc(=O)c3c(OC)cc(OC)cc3o2)cc1"
recorded_metric = "melting point"
test_value = "156 °C"

[[record]]
smiles_input = "NC(=O)c1ncc(Cl)cc1F"
recorded_metric = "melting point"
test_value = "162 to 164 °C"

[[record]]
smiles_input = "c1ccc(COc2ccc3c(C45CC6CC(CC(C6)C4)C5)noc3c2)cc1"
recorded_metric = "melting point"
test_value = "132 °C"


Now look at this entry.
Value lookup for melting point; key = "Cc1oc(-c2ccc3ccccc3c2)nc1COc1ccc(CCCCn2cncn2)cc1"
134 to 135 °C
